// data source = patent US20100029643A1

# study_target: Edg-1/S1P1 receptor (Homo sapiens)
# Construct: expressed in transfected cells; host or cells: human osteogenic sarcoma U2OS cells: Edg-1 Transfluor U2OS WT Clone #37 (assay I), Edg-1 Transfluor U2OS Clone #3 (assay II)
# Sequence (P21453 whole entry): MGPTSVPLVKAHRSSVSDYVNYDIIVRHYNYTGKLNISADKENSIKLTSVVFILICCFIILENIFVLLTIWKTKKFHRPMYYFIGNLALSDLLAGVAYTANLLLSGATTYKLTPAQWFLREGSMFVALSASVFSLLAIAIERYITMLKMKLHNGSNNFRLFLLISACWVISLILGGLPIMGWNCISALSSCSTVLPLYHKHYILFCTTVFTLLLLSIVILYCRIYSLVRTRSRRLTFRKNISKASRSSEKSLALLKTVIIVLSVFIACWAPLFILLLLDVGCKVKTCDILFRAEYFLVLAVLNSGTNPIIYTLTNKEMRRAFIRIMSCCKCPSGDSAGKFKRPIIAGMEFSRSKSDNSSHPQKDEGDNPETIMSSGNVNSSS
# test_method_notes: In vitro cell based receptor activation assay - Transfluor assay (assay I or II; beta-arrestin GFP relocalization after S1P stimulation)
# condition_set: at 3.50 μM (titrated from top concentration 10 μM)
So I've got a bunch of compounds here, and I need their inhibition at 3.5 µM values.
Numbers only, in %.

For the 2 compounds below, give their inhibition at 3.5 µM values.
1. CCn1c([C@@H](C)NS(=O)(=O)c2ccc(F)c(C#N)c2)nc2ccc(C(F)(F)F)cc21
2. CCn1c([C@@H](C)NS(=O)(=O)c2ccccn2)nc2ccc(C(F)(F)F)cc21

Reply:
1: 85.7; 2: 14.9

Quick batch: inhibition at 3.5 µM for everything below.
1. CCn1c([C@@H](C)NS(=O)(=O)c2cc(C)oc2C)nc2ccc(C(F)(F)F)cc21
2. CCn1c([C@@H](C)NS(=O)(=O)c2ccc(F)cc2)nc2cnccc21
3. CCn1c([C@@H](C)NS(=O)(=O)c2ccc(C(=O)NC)nc2)nc2ccc(C(F)(F)F)cc21
4. CCn1c([C@@H](C)NS(=O)(=O)c2ccc(NC)nc2)nc2ccc(C(F)(F)F)cc21

Reply:
1. 92
2. 90.3
3. 69.1
4. 92.5

Can you give me inhibition at 3.5 µM for all of these, one by one?
1. CCn1c([C@@H](C)NS(=O)(=O)c2cnn(C(C)C)c2C)nc2ccc(C(F)(F)F)cc21
2. CCn1c(C(C)NS(=O)(=O)c2ccc(CN3CCOCC3)cc2)nc2ccc(C(F)(F)F)cc21 (centres unmarked)

Reply:
78
10.8
